Where do these numbers come from? They come from paper PMC10003451.

Test System: T1, recombinant protein phosphatase-1 catalytic subunit alpha (PP1cα) (UniProt P62136 1-330)
T1 construct: protein phosphatase-1 catalytic subunit, alpha isoform; recombinant; also called rPP1cα; recombinant PP1c; source: E. coli, purified from the bacterial lysate
T1 sequence (P62136 whole entry, canonical isoform): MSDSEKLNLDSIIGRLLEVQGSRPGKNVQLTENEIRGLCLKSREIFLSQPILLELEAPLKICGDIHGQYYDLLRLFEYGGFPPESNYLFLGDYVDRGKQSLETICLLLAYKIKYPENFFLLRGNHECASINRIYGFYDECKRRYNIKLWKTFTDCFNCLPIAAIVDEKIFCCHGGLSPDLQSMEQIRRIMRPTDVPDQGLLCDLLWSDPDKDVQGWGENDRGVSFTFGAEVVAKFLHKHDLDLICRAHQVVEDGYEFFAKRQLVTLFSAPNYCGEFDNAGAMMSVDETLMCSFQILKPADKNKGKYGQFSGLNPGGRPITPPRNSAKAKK
Experiment: MST; label-free (Monolith NT.LabelFree, intrinsic fluorescence of rPP1cα); 16-point two-fold peptide dilution 9.16 nM-300 µM mixed with rPP1cα 2 µM; 25 mM Tris/HCl, 100 mM NaCl, 1 mM DTT, 0.1% PEG 8000, pH 8.0
Study Conditions: both partners purified
Where no end group is shown, it is not given here. [ ]: non-standard residue; d: D form. pT = C[C@@H](OP(=O)(O)O)[C@H](N)C(=O)O
Assay Metric: pKd
Keep it numeric: pKd is minus log10 of the concentration in mol/L.

Qu. Look at this binder and give its reported pKd. RQSRRS[pT]QGVTL (myosin phosphatase target subunit-1 (MYPT1), residues 690-701, phosphorylated at Thr696; no tags; also called R^690QSRRS(pT696)QGVTL^701; P-Thr-MYPT1^690−701; source: synthetic peptide, bought: Pepmic)
Ans. 4.48
